Data provenance is paper PMC2705653.

# Target Entity: T1, Chp1 chromodomain E23V,V24M (S. pombe, UniProt Q10103 9-76, E23V | V24M)
# T1 sequence (looked up): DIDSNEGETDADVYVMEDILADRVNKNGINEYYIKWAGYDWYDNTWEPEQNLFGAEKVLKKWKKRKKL
# Test Description: fluorescence polarisation

[
  {
    "Binder": "ARTKQTARKSTGGKAY (trimethyl-lysine at 9) [H3K9me3 peptide (fluorescence polarization)]",
    "Kd (µM)": 14.7
  }
]
